Test system: PA-1
Assay details: Primary qHTS to identify gynecologic anti-cancer compounds using libraries of approved drugs and bioactive compounds (AID 1345084); further: nearly all actives have a fitted effect of over 55% in size
Condition context: Gynecologic cancer cell panel viability, ATPlite luminescence, 48 h; series mostly up to 57.5 µM
Inconclusive results are not listed. Calls of active or inactive are those of the source. The call rests on the fitted dose curve; in most records, active means well fitted cell-killing curve with a large enough effect; inconclusive means small, poorly fitted or top-dose-only effect, or effect the other way; inactive means flat fitted curve, though single readings scatter.
Permitted responses: active, inactive

Study these solved cases before continuing.
INSERT INTO assay_data (molecule, class_assignment) VALUES
  ('COC(=O)[C@H](O)[C@H]1C(C)(C)[C@H](OC(=O)C(C)C)[C@@]2(O)C(=O)[C@]1(C)C1CC[C@]3(C)C(CC(=O)O[C@H]3c3ccoc3)[C@]13O[C@@H]32 (some centres undefined)', 'inactive'),
  ('COc1ccc([C@@H]2OC[C@H]3[C@@H]2CO[C@@H]3c2ccc(OC3OC(CO)C(O)C(O)C3O)c(OC)c2)cc1OC (some centres undefined)', 'inactive'),
  ('CC1C(=O)CC2C3CCC(C(=O)O)C12CC3(C)CO (centres undefined)', 'inactive'),
  ('COc1cc(C(=O)NC2CCN(C)CC2)c(F)cc1Nc1ncc2c(n1)N(C1CCCC1)CC(F)(F)C(=O)N2C', 'active'),
  ('C=C(C)C(=O)OC1C(OC(C)=O)/C(C=O)=C\CC/C(CO)=C/C2OC(=O)C(=C)C21 (centres undefined)', 'inactive'),
  ('CCCC(=O)O[C@@H]1[C@@H]2[C@@H](OC(C)=O)[C@]3(C)C(=O)[C@H]4[C@@H](OC(C)=O)C(C)(C)C[C@H]4[C@]3(C)C(=O)[C@@]2(OC(C)=O)C[C@@H]1C', 'inactive'),
  ('CCOc1ccc(NC(=S)N2CCC(C(O)(c3ccccc3)c3ccccc3)CC2)cc1', 'inactive'),
  ('CC1CC(O)/C=C/C(O)C(O)CC(=O)Cc2c(Cl)c(O)cc(O)c2C(=O)O1 (centres undefined)', 'inactive');

input: Which outcome was entered for the molecule CO[C@H]1C[C@@H]2CC[C@@H](C)[C@@](O)(O2)C(=O)C(=O)N2CCCC[C@H]2C(=O)O[C@H]([C@H](C)C[C@@H]2CC[C@H](n3cnnn3)[C@H](OC)C2)CC(=O)[C@H](C)/C=C(\C)[C@@H](O)[C@@H](OC)C(=O)[C@H](C)C[C@H](C)/C=C/C=C/C=C/1C in this test?
output: inactive

input: Which outcome was entered for the molecule C=CC1(C)CC(OC(=O)/C(C)=C\COC(C)=O)C(C(=C)C(=O)O)C(O)C1C(=C)CO (centres undefined) in this test?
output: inactive

input: Which outcome was entered for the molecule COc1ccc2[nH]c3c(-c4cccc5ccccc45)nccc3c2c1 in this test?
output: active

input: Which outcome was entered for the molecule CN(C)CCCCC(=O)Nc1ccc(NC(=S)NC(=O)c2ccc(C(C)(C)C)cc2)cc1 in this test?
output: active

input: Which outcome was entered for the molecule CO[C@H]1C[C@@H]2CC[C@@H](C)[C@@](O)(O2)C(=O)C(=O)N2CCCC[C@H]2C(=O)O[C@H]([C@H](C)C[C@H]2CC[C@@H](OP(C)(C)=O)[C@H](OC)C2)CC(=O)[C@H](C)/C=C(\C)[C@@H](O)[C@@H](OC)C(=O)[C@H](C)C[C@H](C)/C=C/C=C/C=C/1C in this test?
output: inactive

input: Which outcome was entered for the molecule NC(=O)c1cccc(-c2cc(OC(=O)NC3CCCCC3)ccc2O)c1 in this test?
output: inactive
